tested on: 817829-284-R-J1-PDC complex spheroids, viability; assay: Anticancer human tumor 817829-284-R-J1-PDC patient-derived colon adenocarcinoma cell line growth inhibition [GQUAD]; details: second compound 0.1 µM; first compound 3.16 µM; active means viability on the fitted dose curve at most 10% of control; inactive means the rest
Your reply should match one of these outcome classes. label 1 (active), label 0 (inactive)

Field: example entries. Status: answers known.
COMPOUND	TARGET OF ASSAY	CLASSIFICATION
COc1cccc2c1C(=O)c1c(O)c3c(c(O)c1C2=O)CC(O)(C(=O)CO)CC3OC1CC(N)C(O)C(C)O1 (stereo unspecified) + Cc1[nH]c2ccc(F)cc2c1-c1nc2c3cccnc3c3ncccc3c2[nH]1	817829-284-R-J1-PDC complex spheroids, viability	label 1
Nc1ccn(C2OC(CO)C(O)C2(F)F)c(=O)n1 (stereo unspecified) + Cc1cnc(CNC(=O)c2c(=O)c3ccc(N4CCCN(C)CC4)nc3n3c2sc2ccccc23)cn1	817829-284-R-J1-PDC complex spheroids, viability	label 1
O=c1[nH]cc(F)c(=O)[nH]1 + Cc1cnc(CNC(=O)c2c(=O)c3ccc(N4CCCN(C)CC4)nc3n3c2sc2ccccc23)cn1	817829-284-R-J1-PDC complex spheroids, viability	label 0
C#Cc1c(F)ccc2cc(O)cc(-c3ncc4c(N5CC6CCC(C5)N6)nc(OCC56CCCN5CC(F)C6)nc4c3F)c12 (stereo unspecified) + Cc1cnc(CNC(=O)c2c(=O)c3ccc(N4CCCN(C)CC4)nc3n3c2sc2ccccc23)cn1	817829-284-R-J1-PDC complex spheroids, viability	label 0
COc1ccc([C@@H](O)c2cc(-c3ncnc4cc(N5CCOCC5)ccc34)c(F)cc2Cl)nn1 + Cc1[nH]c2ccc(F)cc2c1-c1nc2c3cccnc3c3ncccc3c2[nH]1	817829-284-R-J1-PDC complex spheroids, viability	label 0

Now consider a different compound.
Q) Call for entry O=c1[nH]cc(F)c(=O)[nH]1 + CN(C)c1ccc(Nc2c3ccc(NC(=O)CCN4CCCC4)cc3nc3cc(NC(=O)CCN4CCCC4)ccc23)cc1 :
A) label 0

----------
tested on: 817829-284-R-J1-PDC complex spheroids, viability; experiment: Anticancer human tumor 817829-284-R-J1-PDC cell line growth inhibition [GQUAD]; settings: second compound 1 µM; first compound 1 µM; active means viability on the fitted dose curve at most 10% of control; inactive means the rest;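 further: spheroids exposed to agents for 7 days before readout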
Your reply should match one of these outcome classes. active, inactive

Field: example entries. Status: answers known.
MOLECULE	TARGET OF ASSAY	CLASSIFICATION
C#Cc1c(F)ccc2cc(O)cc(-c3ncc4c(N5CC6CCC(C5)N6)nc(OCC56CCCN5CC(F)C6)nc4c3F)c12 (stereo not drawn) + CN(C)c1ccc(Nc2c3ccc(NC(=O)CCN4CCCC4)cc3nc3cc(NC(=O)CCN4CCCC4)ccc23)cc1	817829-284-R-J1-PDC complex spheroids, viability	inactive
O=C(NO)c1cnc(N2CCN(S(=O)(=O)c3ccc4ccccc4c3)CC2)nc1 + Cc1cnc(CNC(=O)c2c(=O)c3ccc(N4CCCN(C)CC4)nc3n3c2sc2ccccc23)cn1	817829-284-R-J1-PDC complex spheroids, viability	active

Now consider a different molecule.
Q) Call for entry CC1COCCN1c1cc(C2(O)CC3CCC(C2)O3)c2cnn(-c3ccn[nH]3)c2n1 (stereo not drawn) + CN(C)c1ccc(Nc2c3ccc(NC(=O)CCN4CCCC4)cc3nc3cc(NC(=O)CCN4CCCC4)ccc23)cc1 :
A) active

----------
tested on: 817829-284-R-J1-PDC complex spheroids, viability; test: Anticancer human tumor 817829-284-R-J1-PDC cell line growth inhibition [GQUAD]; conditions: second compound 10 µM; first compound 3.16 µM; stronger effect = lower value;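 further: spheroids exposed to agents for 7 days before readout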;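 on viability, T/C: percent viability relative to DMSO vehicle control taken as 100%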
READOUT NAME: viability, T/C (%)
The reply should contain only the number, in %.

Observe how each entry below is paired with its result.
COMPOUND	MEASUREMENT UNIT	MEASURED NUMBER
CC1COCCN1c1cc(C2(O)CC3CCC(C2)O3)c2cnn(-c3ccn[nH]3)c2n1 (stereo not drawn) + Cc1cnc(CNC(=O)c2c(=O)c3ccc(N4CCCN(C)CC4)nc3n3c2sc2ccccc23)cn1	%	0.14
COc1ncnc(C2CC2)c1-c1ncc2cnn(Cc3ccc(-c4nc(C(F)(F)F)cn4C(C)C)cc3)c2n1 + CN(C)c1ccc(Nc2c3ccc(NC(=O)CCN4CCCC4)cc3nc3cc(NC(=O)CCN4CCCC4)ccc23)cc1	%	53.8

Continue with the compound presented below.
Q) viability, T/C for COc1ccc([C@@H](O)c2cc(-c3ncnc4cc(N5CCOCC5)ccc34)c(F)cc2Cl)nn1 + Cc1cnc(CNC(=O)c2c(=O)c3ccc(N4CCCN(C)CC4)nc3n3c2sc2ccccc23)cn1 ?
A) 0.2

----------
test system: 817829-284-R-J1-PDC complex spheroids, viability; experiment: Anticancer human tumor 817829-284-R-J1-PDC cell line growth inhibition [GQUAD]; details: second compound 1 µM; first compound 1 µM; stronger effect = lower value;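 further: spheroids exposed to agents for 7 days before readout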;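 on viability, T/C: percent viability relative to DMSO vehicle control taken as 100%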
READOUT NAME: viability, T/C (%)
The reply should contain only the number, in %.

Observe how each entry below is paired with its result.
COMPOUND	viability, T/C / %
COc1cccc2c1C(=O)c1c(O)c3c(c(O)c1C2=O)CC(O)(C(=O)CO)CC3OC1CC(N)C(O)C(C)O1 (stereo unspecified) + CN(C)c1ccc(Nc2c3ccc(NC(=O)CCN4CCCC4)cc3nc3cc(NC(=O)CCN4CCCC4)ccc23)cc1	10.8
COc1ccc([C@@H](O)c2cc(-c3ncnc4cc(N5CCOCC5)ccc34)c(F)cc2Cl)nn1 + Cc1cnc(CNC(=O)c2c(=O)c3ccc(N4CCCN(C)CC4)nc3n3c2sc2ccccc23)cn1	17.7
CC1COCCN1c1cc(-c2ccnn2C)c2ccnc(-c3ccn[nH]3)c2n1 (stereo unspecified) + Cc1[nH]c2ccc(F)cc2c1-c1nc2c3cccnc3c3ncccc3c2[nH]1	6.25
CC(C)(O)C1CCC(Nc2ccc3ncc(-c4cccc(C(F)(F)F)c4)n3n2)CC1 (stereo unspecified) + Cc1[nH]c2ccc(F)cc2c1-c1nc2c3cccnc3c3ncccc3c2[nH]1	30.9
COc1ncnc(C2CC2)c1-c1ncc2cnn(Cc3ccc(-c4nc(C(F)(F)F)cn4C(C)C)cc3)c2n1 + Cc1[nH]c2ccc(F)cc2c1-c1nc2c3cccnc3c3ncccc3c2[nH]1	98.9
CC(=O)O[C@H]1C(=O)[C@@]2(C)[C@H]([C@H](OC(=O)c3ccccc3)[C@]3(O)C[C@H](OC(=O)[C@H](O)[C@@H](NC(=O)c4ccccc4)c4ccccc4)C(C)=C1C3(C)C)[C@]1(OC(C)=O)CO[C@@H]1C[C@@H]2O + Cc1[nH]c2ccc(F)cc2c1-c1nc2c3cccnc3c3ncccc3c2[nH]1	6.63
CC(=O)O[C@H]1C(=O)[C@@]2(C)[C@H]([C@H](OC(=O)c3ccccc3)[C@]3(O)C[C@H](OC(=O)[C@H](O)[C@@H](NC(=O)c4ccccc4)c4ccccc4)C(C)=C1C3(C)C)[C@]1(OC(C)=O)CO[C@@H]1C[C@@H]2O + Cc1cnc(CNC(=O)c2c(=O)c3ccc(N4CCCN(C)CC4)nc3n3c2sc2ccccc23)cn1	17
O=c1[nH]cc(F)c(=O)[nH]1 + Cc1[nH]c2ccc(F)cc2c1-c1nc2c3cccnc3c3ncccc3c2[nH]1	67.3
CC1COCCN1c1cc(-c2ccnn2C)c2ccnc(-c3ccn[nH]3)c2n1 (stereo unspecified) + Cc1cnc(CNC(=O)c2c(=O)c3ccc(N4CCCN(C)CC4)nc3n3c2sc2ccccc23)cn1	6.22
Cc1cccc(N(C)C(=O)C2C(O)CCN2c2nc(C)cc(C(F)(F)F)c2C#N)c1 (stereo unspecified) + Cc1[nH]c2ccc(F)cc2c1-c1nc2c3cccnc3c3ncccc3c2[nH]1	98.7

Q) viability, T/C for O=C(c1cc(Cc2n[nH]c(=O)c3ccccc23)ccc1F)N1CCN(C(=O)C2CC2)CC1 + Cc1[nH]c2ccc(F)cc2c1-c1nc2c3cccnc3c3ncccc3c2[nH]1 ?
A) 97.4

----------
test system: 817829-284-R-J1-PDC complex spheroids, viability; test: Anticancer human tumor 817829-284-R-J1-PDC cell line growth inhibition [GQUAD]; conditions: curve of first compound; second compound 10 µM;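 further: spheroids exposed to agents for 7 days before readout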
pIC50: −log10 of the molar value.
READOUT NAME: pIC50

Observe how each entry below is paired with its result.
MOLECULE	READOUT NAME	RESULT
CCc1c2c(nc3ccc(O)cc13)-c1cc3c(c(=O)n1C2)COC(=O)[C@]3(O)CC + Cc1[nH]c2ccc(F)cc2c1-c1nc2c3cccnc3c3ncccc3c2[nH]1	pIC50	> 9.00
Cc1cccc(N(C)C(=O)C2C(O)CCN2c2nc(C)cc(C(F)(F)F)c2C#N)c1 (stereo not drawn) + Cc1[nH]c2ccc(F)cc2c1-c1nc2c3cccnc3c3ncccc3c2[nH]1	pIC50	< 5.00

Continue with the molecule presented below.
Q) pIC50 for CC[C@@]1(O)C(=O)OCc2c1cc1n(c2=O)Cc2cc3c(CN(C)C)c(O)ccc3nc2-1 + Cc1[nH]c2ccc(F)cc2c1-c1nc2c3cccnc3c3ncccc3c2[nH]1 ?
A) > 9.00
